System Name: PIM1 (Homo sapiens (Human), UniProt P11309)
Sequence (P11309 whole entry): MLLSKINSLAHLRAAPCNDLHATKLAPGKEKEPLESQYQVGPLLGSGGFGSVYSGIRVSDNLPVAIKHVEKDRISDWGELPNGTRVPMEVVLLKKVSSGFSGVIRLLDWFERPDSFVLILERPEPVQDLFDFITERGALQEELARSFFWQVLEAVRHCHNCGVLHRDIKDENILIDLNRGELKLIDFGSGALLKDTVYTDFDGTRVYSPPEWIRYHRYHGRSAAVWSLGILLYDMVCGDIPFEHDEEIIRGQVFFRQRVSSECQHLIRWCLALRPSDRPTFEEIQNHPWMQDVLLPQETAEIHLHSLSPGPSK
Test Summary: biochemical
Assay type: biochemical
Test Parameters: 20 pM PIM1, 1 μM FAM-peptide, 10 μM ATP, 90 minutes at room temperature; read-out: PIM1 LC3K (KI)
pKi: −log10 of the molar value.
Assign class by pKi: not lower than 10 means Y; lower than 10 means N.

Some entries whose results are on file:
Please indicate if the recorded pKi for `Cn1ncc(NC(=O)c2csc(-c3c(F)cc(C4(F)COC4)cc3F)n2)c1[C@@H]1CC[C@@H](N)[C@H](F)CO1` meets or exceeds 10.
Y

Please indicate if the recorded pKi for `Cn1ncc(NC(=O)c2csc(-c3cccc(F)c3F)n2)c1[C@@H]1CC[C@@H](N)[C@H](F)CO1` meets or exceeds 10.
Y

Continuing:
Please indicate if the recorded pKi for `Cn1ncc(NC(=O)c2nc(-c3cccc(F)c3Cl)sc2N)c1[C@@H]1CC[C@@H](N)[C@H](F)CO1` meets or exceeds 10.
Y

Please indicate if the recorded pKi for `Cn1ncc(NC(=O)c2csc(-c3cccc(OCc4ccccc4)c3)n2)c1[C@@H]1CC[C@@H](N)[C@H](F)CO1` meets or exceeds 10.
N

====

System Name: PIM1 (Homo sapiens (Human), UniProt P11309)
Test Summary: biochemical
Format: biochemical
Test Parameters: 20 pM PIM1, 1 μM FAM-peptide, 10 μM ATP, 90 minutes at room temperature; read-out: PIM1 LC3K (KI)
For each record, write down the corresponding pKi.
One number for each entry, as −log10 of the molar value.

What value of measured pKi is listed for Cn1ncc(NC(=O)c2ccc(F)c(-c3c(F)cc(C4(O)CCC4)cc3F)n2)c1[C@@H]1CC[C@@H](N)[C@@H](F)CO1 [Example 290] ?
10.88

Look at each compound and report its pKi.
1. Cn1ncc(NC(=O)c2nc(-c3c(F)cccc3F)sc2N)c1C1C[C@@H](N)[C@H](F)CCO1 (stereo partly shown) [Example 127]
2. Cn1ncc(NC(=O)c2csc(-c3cccc(Cl)c3F)n2)c1[C@@H]1CC[C@@H](N)[C@H](F)CO1 [Example 308]
3. Cn1ncc(NC(=O)c2nc(-c3cnn(C)c3C(F)(F)F)sc2N)c1[C@@H]1CC[C@@H](N)[C@H](F)CO1 [Example 282]
4. Cn1ncc(NC(=O)c2ccc(F)c(-c3c(F)cc(OC4CCOCC4)cc3F)n2)c1[C@@H]1CC[C@@H](N)[C@@H](F)CO1 [Example 188]
5. Cn1ncc(NC(=O)c2csc(-c3cccnc3)n2)c1[C@@H]1CC[C@@H](N)[C@H](F)CO1 [Example 383]
6. Cn1ncc(NC(=O)c2nc(-c3c(F)cccc3F)sc2N)c1C12CCC(O)C(CC1)O2 (single isomer, unassigned) [Example 109]

9.95
10.27
10.24
10.52
9.00
10.47

====

System Name: PIM1 (Homo sapiens (Human))
Test Summary: biochemical
Type: biochemical
Test Parameters: 20 pM PIM1, 1 μM FAM-peptide, 10 μM ATP, 90 minutes at room temperature; read-out: PIM1 LC3K (KI)
For each record, write down the corresponding pKi.
Numbers only, as −log10 of the molar value.

Here is how some compounds turned out for pKi.
What value of measured pKi is listed for Cn1ncc(NC(=O)c2nc(-c3ccc(C(F)(F)F)cc3F)sc2N)c1[C@@H]1CC[C@@H](N)[C@@H](F)CO1 [Example 259] ?
11.00

What value of measured pKi is listed for Cn1ncc(NC(=O)c2ccc(F)c(-c3c(F)cc(OCCO)cc3F)n2)c1[C@@H]1CC[C@@H](N)[C@@H](F)CO1 [Example 190] ?
10.85

What value of measured pKi is listed for Cn1ncc(NC(=O)c2ccc(F)c(-c3c(F)cc(C4(F)CCOCC4)cc3F)n2)c1[C@@H]1CC[C@@H](N)[C@H](F)CO1 [Example 206] ?
10.80

What value of measured pKi is listed for COc1cc(F)c(-c2nc(C(=O)Nc3cnn(C)c3[C@@H]3CC[C@@H](N)[C@H](F)CO3)cs2)c(F)c1 [Example 296] ?
10.51

What value of measured pKi is listed for CO[C@H]1CO[C@H](c2c(NC(=O)c3nc(-c4cc(C)ccc4F)sc3N)cnn2C)CC[C@H]1N [Example 264] ?
10.70

What value of measured pKi is listed for Cn1ncc(NC(=O)c2nc(-c3ccccc3C(F)(F)F)sc2N)c1[C@@H]1CC[C@@H](N)[C@@H](F)CO1 [Example 270] ?
10.28

What value of measured pKi is listed for Cn1ncc(NC(=O)c2csc(-c3ccccc3C(F)F)n2)c1[C@@H]1CC[C@@H](N)[C@H](F)CO1 [Example 298] ?
9.11

What value of measured pKi is listed for Cn1ncc(NC(=O)c2nc(-c3c(F)ccc(F)c3F)sc2N)c1[C@@H]1CC[C@@H](N)[C@H](F)CO1 [Example 332] ?
11.52

What value of measured pKi is listed for Cn1ncc(NC(=O)c2nc(-c3c(F)cccc3F)sc2N)c1[C@@H]1C[C@@H](F)[C@H](N)CCO1 (stereo in doubt) [Example 135] ?
11.00

What value of measured pKi is listed for Cc1[nH]nc(-c2nc(C(=O)Nc3cnn(C)c3[C@@H]3CC[C@@H](N)[C@H](F)CO3)cs2)c1C [Example 372] ?
10.19

Look at each compound and report its pKi.
1. COc1ccc(F)c(-c2nc(C(=O)Nc3cnn(C)c3[C@@H]3CC[C@@H](N)[C@H](F)CO3)cs2)c1F [Example 229]
2. Cn1ncc(NC(=O)c2nc(-c3cccc(F)c3C(F)(F)F)sc2N)c1[C@@H]1CC[C@@H](N)[C@@H](F)CO1 [Example 267]
3. COCc1cc(F)c(-c2nc(C(=O)Nc3cnn(C)c3[C@@H]3CC[C@@H](N)[C@H](F)CO3)ccc2F)c(F)c1 [Example 199]

12.00
10.01
10.51

Look at each compound and report its pKi.
1. Cn1ncc(NC(=O)c2csc(-c3ncccc3F)n2)c1[C@@H]1CC[C@@H](N)[C@H](F)CO1 [Example 237]
2. Cn1ncc(NC(=O)c2csc(-c3c(F)cc(C4(O)COC4)cc3F)n2)c1[C@@H]1CC[C@@H](N)[C@H](F)CO1 [Example 224]

9.97
10.46

Look at each compound and report its pKi.
1. Cn1ncc(NC(=O)c2csc(-c3cc(C4CC4)ccc3F)n2)c1[C@@H]1CC[C@@H](N)[C@H](F)CO1 [Example 310]
2. CO[C@@H]1CO[C@H](c2c(NC(=O)c3csc(-c4ncccc4C)n3)cnn2C)CC[C@H]1N [Example 348]
3. Cn1ncc(NC(=O)c2ccc(F)c(-c3cc(F)ccc3F)n2)c1[C@@H]1CC[C@@H](N)[C@H](F)CO1 [Example 222]
4. Cn1ncc(NC(=O)c2nc(-c3c(F)cccc3F)sc2N)c1[C@H]1OC[C@H](CN)CO1 [Example 167]

1: 10.03; 2: 10.85; 3: 9.79; 4: 10.54

Look at each compound and report its pKi.
1. Cn1ncc(NC(=O)c2nc(-c3c(F)cccc3F)sc2N)c1[C@H]1CC[C@H](N)C(F)(F)CO1 [Example 169]
2. Cn1ncc(NC(=O)c2nc(-c3c(F)cccc3F)sc2N)c1C1C[C@@H](N)[C@H](F)CCO1 (stereo partly shown) [Example 141]
3. Cn1ncc(NC(=O)c2csc(-c3ccc(C4(C)COC4)cc3F)n2)c1[C@@H]1CC[C@@H](N)[C@H](F)CO1 [Example 393]

1. 9.47
2. 10.15
3. 11.52

====

System Name: PIM1 (Homo sapiens (Human))
Test Summary: biochemical
Assay type: biochemical
Test Parameters: 20 pM PIM1, 1 μM FAM-peptide, 10 μM ATP, 90 minutes at room temperature; read-out: PIM1 LC3K (KI)
Metric Name: pKi
Numbers only, as −log10 of the molar value.

Here is how some molecules turned out for pKi.
What value of measured pKi is listed for Cn1ncc(NC(=O)c2nc(-c3c(F)cccc3F)sc2N)c1[C@H]1CC(F)[C@@H](N)CCO1 (stereo partly shown) ?
10.17

What value of measured pKi is listed for `COCCOc1cc(F)c(-c2nc(C(=O)Nc3cnn(C)c3[C@@H]3CC[C@@H](N)[C@H](O)CO3)ccc2F)c(F)c1` ?
10.25

What value of measured pKi is listed for `CO[C@H]1CO[C@H](c2c(NC(=O)c3nc(-c4c(F)ccc(F)c4F)sc3N)cnn2C)CC[C@H]1N` ?
11.00

What value of measured pKi is listed for `Cn1ncc(NC(=O)c2nc(-c3c(F)cccc3F)sc2N)c1[C@@H]1C[C@H](O)CCO1` ?
10.02

What value of measured pKi is listed for `Cn1ncc(NC(=O)c2nc(-c3c(F)cccc3F)sc2N)c1[C@@H]1C[C@H](N)CCO1` ?
9.61

Look at each molecule and report its pKi.
1. Cn1ncc(NC(=O)c2csc(-c3cnn(C)c3C(F)(F)F)n2)c1[C@@H]1CC[C@@H](N)[C@@H](F)CO1
2. Cn1ncc(NC(=O)c2ccc(F)c(-c3c(F)cc(C(CO)CO)cc3F)n2)c1[C@@H]1CC[C@@H](N)[C@H](F)CO1

1. 9.77
2. 10.12
